Collected abundance fitness values appear next to each entry.
B1: Steroid hormone receptor ERR2, residues 100 to 176; numbered along this chain, O95718 (parent)
chain: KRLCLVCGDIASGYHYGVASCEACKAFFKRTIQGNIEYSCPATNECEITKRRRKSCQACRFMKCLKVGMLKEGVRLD

variants of: B1; test: abundance fitness (aPCA) (normalised: wild type 0, dead -1); higher = more abundant; growth selection in yeast, the domain comes from the species named; settings: Homo sapiens
PROPERTY: abundance fitness

A26F
-0.467
A58W
-0.308
F28E
-0.638
K63R
-0.145
C56G
-0.718
R51M
0.173
I10E
0.045
M62K
0.141
C4S
-0.824
R2F
0.16
C4A
-0.801
